B1: Azoarcus group I ribozyme (parent)
chain: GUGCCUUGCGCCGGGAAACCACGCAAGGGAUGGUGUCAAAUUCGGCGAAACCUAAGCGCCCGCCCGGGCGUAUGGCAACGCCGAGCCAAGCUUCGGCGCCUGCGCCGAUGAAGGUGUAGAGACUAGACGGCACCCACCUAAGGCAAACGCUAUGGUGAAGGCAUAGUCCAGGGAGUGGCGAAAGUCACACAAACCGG

Variants of: B1
Test: reverse-splicing fitness (ratio to wild type); higher = more active; in vitro selection; Mg2+ level not given
RECORDED METRIC: reverse-splicing fitness
Answers are plain numbers.

>  <VARIANT DESIGNATION>
A111U C150U C169U U176G

>  <reverse-splicing fitness>
0.00705

$$$$
>  <VARIANT DESIGNATION>
C82U A111C A120C A145U C150G U176G

>  <reverse-splicing fitness>
0.00321

$$$$
>  <VARIANT DESIGNATION>
C82A A145C C150U C169U U176G

>  <reverse-splicing fitness>
0.00481

$$$$

// for each variant in input: emit reverse-splicing fitness
1. C82G A111G A120G A145U C150A C169G U176G
2. C82A A120C A145C C150U

[0.00454, 0.035]

// for each variant in input: emit reverse-splicing fitness
1. A111C A145C C150A C169U U176A
2. C82G A111C A120G C169G U176A
3. C82G A111U A120G A145G C150G U176A
4. A111C A120U A145U C150A C169A U176C
5. A111G A120U A145C C150G C169G U176C

1: 0.0151; 2: 0.0184; 3: 0.00727; 4: 0.00244; 5: 0.0019

// for each variant in input: emit reverse-splicing fitness
1. A111G A120G A145C C150G U176G
2. C82U A111G A145U C150G C169U
3. C82G A111U A120G A145G C150A C169G U176G
4. C82A A120C A145G C150U C169G U176G
5. C82U A111G A145C C150A U176A
6. C82U A145C C150U C169A U176A
7. C82A A111U A145G C150A C169G U176G
8. C82G A120C A145U C150U U176G

1. 0.00289
2. 0.00901
3. 0.0053
4. 0.00573
5. 0.0156
6. 0.00827
7. 0.00681
8. 0.0119

// for each variant in input: emit reverse-splicing fitness
1. A111C A145U C150U U176G
2. C82U A111G A145G C150G C169G
3. A120C A145G C150A C169A U176A
4. C82G A111C A120G A145G C150U C169U U176A

[0.166, 0.007, 0.0168, 0.0141]
